// provenance: paper PMC4376002

Mip of L. pneumophila (Legionella pneumophila subsp. pneumophila, UniProt Q5ZXE0): reported pIC50 for various compounds.
Sequence (Q5ZXE0 21-233 limits assumed): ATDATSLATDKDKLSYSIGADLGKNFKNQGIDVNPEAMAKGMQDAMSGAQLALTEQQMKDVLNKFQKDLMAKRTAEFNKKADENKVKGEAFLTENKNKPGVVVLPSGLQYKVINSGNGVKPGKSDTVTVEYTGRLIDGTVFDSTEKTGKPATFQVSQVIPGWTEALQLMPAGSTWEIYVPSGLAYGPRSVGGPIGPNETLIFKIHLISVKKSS
In simple prose, pIC50 is minus the logarithm base ten of a concentration in moles per litre.

Some entries whose results are on file:
| compound | pIC50 |
| --- | --- |
| C[C@@H]1CC([C@H](O)CC2CC(=O)N(CC(=O)N(C)C(C)(C)C)C(=O)C2)C(=O)[C@@H](C)C1 (stereo partly drawn) [MT_30.9] | 4.50 |
| CC1CC(C)C(=O)C(C(O)CC2CC(=O)N(CC(=O)NC34CC5CC(C)(CC(C)(C5)C3)C4)C(=O)C2)C1 (stereo not drawn) [MT_30.32] | 5.77 |
| C[C@@H]1CC([C@H](O)CC2CC(=O)N(CC(=O)NC34CC5CC(CC(C5)C3)C4)C(=O)C2)C(=O)[C@@H](C)C1 (stereo partly drawn) [MT_30.8] | 5.07 |

Challenge: Enter reported pIC50 observed with Mip of L. pneumophila (Legionella pneumophila subsp. pneumophila, UniProt Q5ZXE0) for C[C@@H]1CC([C@H](O)CC2CC(=O)N(CC(=O)NC34CC5CC(CC(O)(C5)C3)C4)C(=O)C2)C(=O)[C@@H](C)C1 (stereo partly drawn) [MT_30.38]
Response given: 4.66

Challenge: Enter reported pIC50 observed with Mip of L. pneumophila (Legionella pneumophila subsp. pneumophila, UniProt Q5ZXE0) for C[C@@H]1CC([C@H](O)CC2CC(=O)N(CC(=O)NC34CC5CC(CC(C5)C3)C4)C(=O)C2)[C@@H](O)[C@@H](C)C1 (stereo partly drawn) [MT_30.93]
Response given: 4.79

Challenge: Enter reported pIC50 observed with Mip of L. pneumophila (Legionella pneumophila subsp. pneumophila, UniProt Q5ZXE0) for C[C@@H]1CC([C@H](O)CC2CC(=O)N(CC(=O)NC(C)(C)C)C(=O)C2)C(=O)[C@@H](C)C1 (stereo partly drawn) [MT_30.3]
Response given: 4.47
